Cited source for all entries: ChEMBL document CHEMBL4823330

TARGET_OR_TEST_SYSTEM: CYP3A4 (Homo sapiens)
Sequence (P08684 whole entry): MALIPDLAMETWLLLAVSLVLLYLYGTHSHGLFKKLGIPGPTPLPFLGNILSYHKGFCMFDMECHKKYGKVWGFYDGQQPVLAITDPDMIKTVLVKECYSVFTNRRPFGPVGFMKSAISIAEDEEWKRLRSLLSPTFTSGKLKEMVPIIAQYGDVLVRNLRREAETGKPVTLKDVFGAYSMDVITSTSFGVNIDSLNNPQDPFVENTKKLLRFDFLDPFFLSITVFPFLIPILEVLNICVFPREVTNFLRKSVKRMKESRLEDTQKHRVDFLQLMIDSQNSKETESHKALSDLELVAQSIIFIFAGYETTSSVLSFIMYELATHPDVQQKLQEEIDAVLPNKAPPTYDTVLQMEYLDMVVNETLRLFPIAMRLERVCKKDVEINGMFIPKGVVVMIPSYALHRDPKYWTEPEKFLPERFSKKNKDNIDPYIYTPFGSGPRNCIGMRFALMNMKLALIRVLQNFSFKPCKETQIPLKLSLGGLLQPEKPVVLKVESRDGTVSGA
ASSAY_REMARKS: Inhibition of recombinant CYP3A4 (unknown origin) using BFC as substrate at 1 uM measured after 30 mins in presence of NADPH generating system by fluorescence assay relative to control
Assay type: ADME
PROTOCOL_CONDITIONS: recombinant CYP3A4, probe BFC
MEASURE: inhibition at 0.5 h, 1 µM
Dear colleague, please send the value followed by its unit.

Some solved entries appear below for comparison.
* CCCC(c1nc2ccccc2c(=O)n1CCOC)N1CCNCC1 (stereo not given) | 67%
* CCCC(c1nc2cc(Br)ccc2c(=O)n1CC)N1C[C@@H](C)N[C@@H](C)C1 (stereo not given in full) | 97%
* CCCC(c1nc2cccc(Br)c2c(=O)n1CC)N1C[C@@H](C)N[C@@H](C)C1 (stereo not given in full) | 95%
* CCC[C@H](c1nc2ccc(Br)cc2c(=O)n1CC)N1C[C@@H](C)N[C@@H](C)C1 | 94%
* CCCC(c1nc2ccccc2c(=O)n1Cc1ccco1)N1C[C@@H](C)N[C@@H](C)C1 (stereo not given in full) | 99%

### Prompt State its inhibition at 0.5 h, 1 µM: CCC[C@H](c1nc2ccncc2c(=O)n1CC)N1CCN[C@@H](C)C1
### Response 56%

### Prompt State its inhibition at 0.5 h, 1 µM: CCCC(c1nc2ccc(Br)cc2c(=O)n1CC)N1CCNCC1 (stereo not given)
### Response 65%

### Prompt State its inhibition at 0.5 h, 1 µM: CCCC(c1nc2ccc(C#N)cc2c(=O)n1CC)N1C[C@@H](C)N[C@@H](C)C1 (stereo not given in full)
### Response 70%

### Prompt State its inhibition at 0.5 h, 1 µM: COCCn1c(CN2CCNCC2)nc2ccccc2c1=O
### Response 6%

### Prompt State its inhibition at 0.5 h, 1 µM: CCCC(c1nc2ccc(Br)cc2c(=O)n1CC)N1C[C@@H](C)N[C@@H](C)C1 (stereo not given in full)
### Response 95%
